Provide the reported normalised response of each item.
Test system: CAL-148
Experiment: normalised response (% of control), CellTiter-Glo; higher = more viable cells (100 = DMSO, 0 = benzethonium chloride kill control)
Settings: incubation time: 72 h
Give bare numbers, in %.

Solved entries:
Item: CO[C@H]1C[C@@H]2CC[C@@H](C)[C@@](O)(O2)C(=O)C(=O)N2CCCC[C@H]2C(=O)O[C@H]([C@H](C)C[C@@H]2CC[C@@H](OP(C)(C)=O)[C@H](OC)C2)CC(=O)[C@H](C)/C=C(\C)[C@@H](O)[C@@H](OC)C(=O)[C@H](C)C[C@H](C)/C=C/C=C/C=C/1C [Ridaforolimus] (0.01 nM) | System: CAL-148 | normalised response: 105

Item: CO[C@H]1C[C@@H]2CC[C@@H](C)[C@@](O)(O2)C(=O)C(=O)N2CCCC[C@H]2C(=O)O[C@H]([C@H](C)C[C@@H]2CC[C@@H](OP(C)(C)=O)[C@H](OC)C2)CC(=O)[C@H](C)/C=C(\C)[C@@H](O)[C@@H](OC)C(=O)[C@H](C)C[C@H](C)/C=C/C=C/C=C/1C [Ridaforolimus] (10 nM) | System: CAL-148 | normalised response: 64.5

// each molecule listed below needs its normalised response
1. O=C(Nc1ccncc1)C(=O)c1cn(Cc2ccc(Cl)cc2)c2ccccc12 [Indibulin] (1000 nM)
2. CO[C@H]1C[C@@H]2CC[C@@H](C)[C@@](O)(O2)C(=O)C(=O)N2CCCC[C@H]2C(=O)O[C@H]([C@H](C)C[C@@H]2CC[C@@H](OP(C)(C)=O)[C@H](OC)C2)CC(=O)[C@H](C)/C=C(\C)[C@@H](O)[C@@H](OC)C(=O)[C@H](C)C[C@H](C)/C=C/C=C/C=C/1C [Ridaforolimus] (0.1 nM)

93.2
104

###

Test system: Hs578T
Experiment: normalised viability (% of control), CellTiter-Blue; higher = more viable cells (about 100 = DMSO control)
Conditions: 10 nM; incubation time: 72 h
Measured endpoint: normalised viability (%)
Give bare numbers, in %.

Solved entries:
Given item CN(C)CCOc1ccc(/C(=C(/CCCl)c2ccccc2)c2ccccc2)cc1 [Toremifene] , the value recorded as its normalised viability is 122

Given item O=C(/C=C/c1cccc(S(=O)(=O)Nc2ccccc2)c1)NO [Belinostat] , the value recorded as its normalised viability is 114

// each molecule listed below needs its normalised viability
1. Cc1ccc(NC(=O)c2ccc(CN3CCN(C)CC3)cc2)cc1Nc1nc(-c2cccnc2)cs1 [Masitinib]
2. NC(=O)c1ccc(I)c([N+](=O)[O-])c1 [Iniparib]
3. O=C(Nc1ccncc1)C(=O)c1cn(Cc2ccc(Cl)cc2)c2ccccc12 [Indibulin]
4. O=C(Nc1cccnc1)N1CCC(Cc2cccc(Oc3ccc(C(F)(F)F)cn3)c2)CC1 [PF-3845]

1: 113; 2: 115; 3: 110; 4: 116

###

System: MFM-223
Experiment: normalised viability (% of control), CellTiter-Blue; higher = more viable cells (about 100 = DMSO control)
Conditions: 10000 nM; incubation time: 72 h
Provide the reported normalised viability of each item.
One number for each entry, in %.

Solved entries:
Given item Nc1cc(C(F)(F)F)c(-c2cc(N3CCOCC3)nc(N3CCOCC3)n2)cn1 , the value recorded as its normalised viability is 14.5

Given item COc1cc(OC2CCN(C)CC2)ccc1Nc1ncc2c(n1)n(C1CCCC1)c(=O)n2C , the value recorded as its normalised viability is 84.4

Given item C=C1C[C@@H]2[C@H](CC[C@]3(C)C(=O)CC[C@@H]23)[C@@]2(C)C=CC(=O)C=C12 , the value recorded as its normalised viability is 108

From here, focus on the item given below.
Given item O=C(/C=C/c1cccc(S(=O)(=O)Nc2ccccc2)c1)NO , the value recorded as its normalised viability is 11.1

###

Provide the reported drug sensitivity score of each item.
System: MDA-MB-468
Test: drug sensitivity score (DSS), CellTiter-Blue viability (DSS (AUC-based score)); higher = stronger viability inhibition; extreme values may be limits of the assay
Details: incubation time: 72 h
One number for each entry.

Solved entries:
Given item COCC[n+]1c2c(n(Cc3cnccn3)c1C)C(=O)c1ccccc1C2=O , the value recorded as its drug sensitivity score is 40.3

Given item CN(C)CCOc1ccc(/C(=C(/CCCl)c2ccccc2)c2ccccc2)cc1 , the value recorded as its drug sensitivity score is 2.87

From here, focus on the item given below.
Given item O=C(Nc1ccncc1)C(=O)c1cn(Cc2ccc(Cl)cc2)c2ccccc12 , the value recorded as its drug sensitivity score is 15.3

###

System: MDA-MB-436
Test: drug sensitivity score (DSS), CellTiter-Glo (DSS (AUC-based score)); higher = stronger drug effect (viability inhibition or cytotoxicity); extreme values may be limits of the assay
Settings: incubation time: 72 h
Measured endpoint: drug sensitivity score

Given item COC(=O)c1ccc2c(c1)NC(=O)/C2=C(\Nc1ccc(N(C)C(=O)CN2CCN(C)CC2)cc1)c1ccccc1 , the value recorded as its drug sensitivity score is 3.08

Given item CNC(=O)c1cc(Oc2ccc(NC(=O)Nc3ccc(Cl)c(C(F)(F)F)c3)c(F)c2)ccn1 , the value recorded as its drug sensitivity score is 1.08

Given item Nc1cc(C(F)(F)F)c(-c2cc(N3CCOCC3)nc(N3CCOCC3)n2)cn1 , the value recorded as its drug sensitivity score is 0

// each compound listed below needs its drug sensitivity score
1. CO[C@H]1C[C@@H]2CC[C@@H](C)[C@@](O)(O2)C(=O)C(=O)N2CCCC[C@H]2C(=O)O[C@H]([C@H](C)C[C@@H]2CC[C@@H](OP(C)(C)=O)[C@H](OC)C2)CC(=O)[C@H](C)/C=C(\C)[C@@H](O)[C@@H](OC)C(=O)[C@H](C)C[C@H](C)/C=C/C=C/C=C/1C
2. CNC(=O)c1ccc(N2C(=S)N(c3ccc(C#N)c(C(F)(F)F)c3)C(=O)C23CCC3)cc1F
3. Oc1ccc2c(c1)CC[C@H](c1ccccc1)[C@@H]2c1ccc(OCCN2CCCC2)cc1

1: 4.1; 2: 0; 3: 0

###

System: MDA-MB-453
Settings: 72 h
Measured endpoint: EC50, CellTiter-Glo
Report the figure along with its unit, number first.

// each molecule listed below needs its EC50, CellTiter-Glo
1. CNC(=O)c1cc(Oc2ccc(NC(=O)Nc3ccc(Cl)c(C(F)(F)F)c3)c(F)c2)ccn1
2. Cc1[nH]c2ccccc2c1CCNCc1ccc(/C=C/C(=O)NO)cc1
3. COC(=O)c1ccc2c(c1)NC(=O)/C2=C(\Nc1ccc(N(C)C(=O)CN2CCN(C)CC2)cc1)c1ccccc1
4. COc1cc(O)c2c(c1)/C=C/C[C@H](O)[C@H](O)C(=O)/C=C\C[C@H](C)OC2=O
5. O=C(/C=C/c1cccc(S(=O)(=O)Nc2ccccc2)c1)NO

1. 2890 nM
2. 9.95 nM
3. 3110 nM
4. 8350 nM
5. 158 nM

###

Tested on: MDA-MB-231
Assay: normalised viability (% of control), CellTiter-Blue; higher = more viable cells (about 100 = DMSO control)
Settings: 10 nM; incubation time: 72 h
Measured endpoint: normalised viability (%)
Answers are plain numbers, in %.

Solved entries:
Given item c1ccc2c(CCNc3ccc(Nc4ccncc4)cc3)c[nH]c2c1 [Serdemetan] , the value recorded as its normalised viability is 88.4

Given item CN(C)c1nc(N(C)C)nc(N(C)C)n1 [Altretamine] , the value recorded as its normalised viability is 99.7

// each molecule listed below needs its normalised viability
1. COC(=O)c1ccc2c(c1)NC(=O)/C2=C(\Nc1ccc(N(C)C(=O)CN2CCN(C)CC2)cc1)c1ccccc1 [BIBF 1120]
2. C=C1C[C@@H]2[C@H](CC[C@]3(C)C(=O)CC[C@@H]23)[C@@]2(C)C=CC(=O)C=C12 [Exemestane]
3. CNC(=O)c1cc(Oc2ccc(NC(=O)Nc3ccc(Cl)c(C(F)(F)F)c3)c(F)c2)ccn1 [Regorafenib]
4. O=C(Nc1cccnc1)N1CCC(Cc2cccc(Oc3ccc(C(F)(F)F)cn3)c2)CC1 [PF-3845]
5. COc1cc2/c(=N/c3ccc(Br)cc3F)nc[nH]c2cc1OCC1CCN(C)CC1 [Vandetanib]

1. 97.6
2. 101
3. 90.5
4. 106
5. 86

###

Tested on: MDA-MB-436
Test: normalised response (% of control), CellTiter-Glo; higher = more viable cells (100 = DMSO, 0 = benzethonium chloride kill control)
Conditions: incubation time: 72 h
Provide the reported normalised response of each item.
Give bare numbers, in %.

Solved entries:
Given item Oc1ccc2c(c1)CC[C@H](c1ccccc1)[C@@H]2c1ccc(OCCN2CCCC2)cc1 [Lasofoxifene] (1 nM) , the value recorded as its normalised response is 101

Given item CN(C)CCOc1ccc(/C(=C(/CCCl)c2ccccc2)c2ccccc2)cc1 [Toremifene] (1 nM) , the value recorded as its normalised response is 98.7

Given item CC(C)C[C@@H](C(=O)N[C@H](C(=O)OC1CCCC1)c1ccccc1)[C@H](O)C(=O)NO [Tosedostat] (10 nM) , the value recorded as its normalised response is 96.1

Others:
Given item c1ccc2c(CCNc3ccc(Nc4ccncc4)cc3)c[nH]c2c1 [Serdemetan] (1000 nM) , the value recorded as its normalised response is 89.5

Cited source: the supplement of paper PMC4862054
